As shown below, each of these compounds has a reported Ki value.
- tgt: hMCHR (MCH receptor) (Homo sapiens)
- Construct: (or internally produced); host or cells: CHO (Chinese hamster ovary) cells, membrane preparation
- experiment summary: MCH Assay PCOP Protocol ([125I]-MCH SPA binding to hMCHR-CHO membranes)
- reported conditions: [125I]-MCH 0.5 nM, hMCHR-CHO membranes; read-out: Activity (ranges of Ki values)
- Description: A reaction mixture of 10 μg hMCHR-CHO overexpressing membranes (from Receptor Biology, Inc., Beltsville, Md., or internally produced) and 100 μg/well WGA-SPA beads (from Amersham Pharmacia Biotech, Inc., Piscataway, N.J.)/100 μl was prepared in MCHR assay buffer (25 mM HEPES, pH 7.4, 10 mM NaCl, 10 mM MgCl2, 5 mM MnCl2, 0.1% BSA). […]

[
  {
    "compound": "CC(CCNC1CCCC1)(CNC(=O)Nc1cc(Cl)cc(Cl)c1)c1ccc(Cl)c(Cl)c1 (centres unmarked)",
    "Ki": "51 to 500 nM"
  },
  {
    "compound": "O=C(NCC(CCNC1CCCC1)c1cccc(-c2cccc(Cl)c2)c1)Nc1cc(Cl)cc(Cl)c1 (centres unmarked)",
    "Ki": "51 to 500 nM"
  },
  {
    "compound": "Cc1ccc(C(CCN2CCC(NS(C)(=O)=O)C2)CNC(=O)Nc2cc(Cl)cc(Cl)c2)cc1 (centres unmarked)",
    "Ki": "501 to 2500 nM"
  },
  {
    "compound": "CN(CCC(C(=O)NCc1cc(C(F)(F)F)cc(C(F)(F)F)c1)c1ccc(Cl)c(Cl)c1)C1CCCCC1 (racemic)",
    "Ki": "501 to 2500 nM"
  },
  {
    "compound": "CNCCC(CNC(=O)c1ccc(F)c(F)c1)c1ccc(-c2cccc(C#N)c2)cc1 (racemic)",
    "Ki": "501 to 2500 nM"
  },
  {
    "compound": "Cc1ccc(C(CCNC2CCCC2)CNC(=O)Nc2cc(Cl)cc(Cl)c2)cc1C (centres unmarked)",
    "Ki": "51 to 500 nM"
  },
  {
    "compound": "CNCCC(CNC(=O)Nc1cccc(F)c1)c1ccc(-c2cccc(C#N)c2)cc1 (centres unmarked)",
    "Ki": "0.4 to 50 nM"
  },
  {
    "compound": "N#Cc1cccc(-c2ccc(C(CCNC3CCCC3)CNC(=O)Nc3ccc(F)c(F)c3)cc2)c1 (centres unmarked)",
    "Ki": "0.4 to 50 nM"
  }
]

----------
- tgt: hMCHR (MCH receptor) (Homo sapiens, UniProt Q99705)
- Construct: (or internally produced); host or cells: CHO (Chinese hamster ovary) cells, membrane preparation
- Sequence (Q99705 whole entry): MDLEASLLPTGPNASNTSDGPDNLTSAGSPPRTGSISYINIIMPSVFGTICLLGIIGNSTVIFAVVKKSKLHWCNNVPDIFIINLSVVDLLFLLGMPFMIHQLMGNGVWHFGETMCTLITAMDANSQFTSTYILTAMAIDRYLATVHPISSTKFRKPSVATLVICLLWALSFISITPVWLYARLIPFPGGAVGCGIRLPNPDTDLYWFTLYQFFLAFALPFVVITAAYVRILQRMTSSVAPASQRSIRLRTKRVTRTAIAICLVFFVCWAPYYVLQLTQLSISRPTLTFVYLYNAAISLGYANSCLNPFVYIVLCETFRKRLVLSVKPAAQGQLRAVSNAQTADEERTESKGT
- experiment summary: MCH Assay PCOP Protocol ([125I]-MCH SPA binding to hMCHR-CHO membranes);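 as to Activity (Ki range): A 0.4–50 nM B 51–500 nM C 501–2500 nM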
- reported conditions: [125I]-MCH binding to hMCHR-CHO membranes; class symbols for ranges of Ki; read-out: Activity (Ki range)
pKi: −log10 of the molar value.
# pKi values compiled below

[
  {
    "compound": "O=C(NCC(CCN1CCC(N2CCCCC2)CC1)c1ccc(Cl)c(Cl)c1)Nc1ccc(Cl)cc1 (stereo not drawn)",
    "pKi": "5.60 to 6.30"
  },
  {
    "compound": "O=C(NCC(CCN1CCC(N2CCCCC2)CC1)c1ccc(Cl)c(Cl)c1)Nc1cccc(Cl)c1Cl (stereo not drawn)",
    "pKi": "5.60 to 6.30"
  },
  {
    "compound": "O=C(NCC(CCN1CCC(CNC2(CO)CCCC2)CC1)c1ccc(Cl)c(Cl)c1)c1cc(C(F)(F)F)cc(C(F)(F)F)c1 (stereo not drawn)",
    "pKi": "5.60 to 6.30"
  },
  {
    "compound": "COc1cc(-c2ccc(C(CCNCCCN(C)C)CNC(=O)Nc3cc(Cl)cc(Cl)c3)cc2)cc(OC)c1OC (stereo not drawn)",
    "pKi": "5.60 to 6.30"
  },
  {
    "compound": "Cn1cnc(CCNCCC(CNC(=O)Nc2ccc(Cl)c(Cl)c2)c2ccc(Cl)c(Cl)c2)c1 (stereo not drawn)",
    "pKi": "6.30 to 7.29"
  },
  {
    "compound": "O=C(NCC(CCN1CCCC1)c1cccc(Cl)c1)Nc1cc(C(F)(F)F)cc(C(F)(F)F)c1 (stereo not drawn)",
    "pKi": "5.60 to 6.30"
  },
  {
    "compound": "O=C(NCC(CCNCCc1ccc(O)cc1)c1ccc(Cl)c(Cl)c1)Nc1ccc(Cl)c(Cl)c1 (stereo not drawn)",
    "pKi": "6.30 to 7.29"
  },
  {
    "compound": "CCCN(CC)CCC(CNC(=O)c1cc(C(F)(F)F)cc(C(F)(F)F)c1)c1ccc(Cl)c(Cl)c1 (stereo not drawn)",
    "pKi": "5.60 to 6.30"
  },
  {
    "compound": "O=C(NCC(CCNCCc1c[nH]c2ccccc12)c1ccc(Cl)cc1)Nc1cc(C(F)(F)F)cc(C(F)(F)F)c1 (stereo not drawn)",
    "pKi": "6.30 to 7.29"
  },
  {
    "compound": "CN(C)CCCNCCC(CNC(=O)Nc1cc(Cl)cc(Cl)c1)c1ccc(-c2ccc(Cl)c(Cl)c2)cc1 (stereo not drawn)",
    "pKi": "6.30 to 7.29"
  },
  {
    "compound": "COc1ccc(-c2ccc(C(CCNCCCN(C)C)CNC(=O)Nc3cc(Cl)cc(Cl)c3)cc2)c(OC)c1 (stereo not drawn)",
    "pKi": "6.30 to 7.29"
  },
  {
    "compound": "Cc1cc(C)cc(NC(=O)NCC(CCN2CCC(N3CCCCC3)CC2)c2ccc(Cl)c(Cl)c2)c1 (stereo not drawn)",
    "pKi": "5.60 to 6.30"
  },
  {
    "compound": "O=C(NCC(CCN1CCC(N2CCCCC2)CC1)c1ccc(Cl)c(Cl)c1)Nc1ccc(Br)cc1 (stereo not drawn)",
    "pKi": "5.60 to 6.30"
  },
  {
    "compound": "Cc1ccc(C(CCNC2CCCC2)CNC(=O)Nc2cc(C(F)(F)F)cc(C(F)(F)F)c2)cc1 (stereo not drawn)",
    "pKi": "6.30 to 7.29"
  },
  {
    "compound": "COc1cc(-c2ccc(C(CCNC3CCCC3)CNC(=O)Nc3cc(Cl)cc(Cl)c3)cc2)cc(OC)c1OC (stereo not drawn)",
    "pKi": "6.30 to 7.29"
  },
  {
    "compound": "O=C(NCC(CCNC1CCCC1)c1ccc(-c2ccc(Cl)c(Cl)c2)cc1)Nc1cc(Cl)cc(Cl)c1 (stereo not drawn)",
    "pKi": "6.30 to 7.29"
  },
  {
    "compound": "O=C(NCC(CCN1CCNCC1)c1ccc(Cl)c(Cl)c1)Nc1cc(Cl)cc(Cl)c1 (stereo not drawn)",
    "pKi": "5.60 to 6.30"
  },
  {
    "compound": "CN(C)CCCNCCC(CNC(=O)Nc1cc(Cl)cc(Cl)c1)c1ccc(-c2ccsc2)cc1 (stereo not drawn)",
    "pKi": "6.30 to 7.29"
  },
  {
    "compound": "O=S(=O)(NCC(CCN1CCCC1)c1cccc(Cl)c1)c1ccc(Cl)c(Cl)c1 (stereo not drawn)",
    "pKi": "5.60 to 6.30"
  },
  {
    "compound": "O=C(NCc1cc(C(F)(F)F)cc(C(F)(F)F)c1)C(CCNCCN1CCCC1)c1ccc(Cl)c(Cl)c1 (stereo not drawn)",
    "pKi": "5.60 to 6.30"
  },
  {
    "compound": "COc1ccc2c(CCNCCC(CNC(=O)c3cc(C(F)(F)F)cc(C(F)(F)F)c3)c3ccc(Cl)c(Cl)c3)c[nH]c2c1 (stereo not drawn)",
    "pKi": "5.60 to 6.30"
  },
  {
    "compound": "O=C(NCC(CCN1CCC(N2CCCCC2)CC1)c1ccc(Cl)c(Cl)c1)Nc1cc(C(F)(F)F)ccc1F (stereo not drawn)",
    "pKi": "5.60 to 6.30"
  },
  {
    "compound": "O=C(NCC(CCN1CCC(N2CCCCC2)CC1)c1ccc(Cl)c(Cl)c1)Nc1ccc(F)cc1 (stereo not drawn)",
    "pKi": "5.60 to 6.30"
  },
  {
    "compound": "Cc1ccc(C(CCNC2CCCC2)CNC(=O)Nc2cc(Cl)cc(Cl)c2)cc1 (stereo not drawn)",
    "pKi": "6.30 to 7.29"
  },
  {
    "compound": "O=S(=O)(NCC(CCN1CCC(N2CCCCC2)CC1)c1ccc(Cl)c(Cl)c1)c1cccc(C(F)(F)F)c1 (stereo not drawn)",
    "pKi": "5.60 to 6.30"
  },
  {
    "compound": "O=C(NCC(CCNCCc1ccc(O)cc1)c1ccc(Cl)c(Cl)c1)Nc1cccc(C(F)(F)F)c1 (stereo not drawn)",
    "pKi": "6.30 to 7.29"
  },
  {
    "compound": "CN(CCC(CNC(=O)c1cc(C(F)(F)F)cc(C(F)(F)F)c1)c1ccc(Cl)c(Cl)c1)CC(=O)O (stereo not drawn)",
    "pKi": "5.60 to 6.30"
  },
  {
    "compound": "COc1cc(CNCCC(CNC(=O)Nc2ccc(Cl)c(Cl)c2)c2ccc(Cl)c(Cl)c2)cc(OC)c1OC (stereo not drawn)",
    "pKi": "6.30 to 7.29"
  },
  {
    "compound": "CC(Cc1c[nH]c2ccc(F)cc12)NCCC(CNC(=O)c1cc(C(F)(F)F)cc(C(F)(F)F)c1)c1ccc(Cl)c(Cl)c1 (stereo not drawn)",
    "pKi": "5.60 to 6.30"
  },
  {
    "compound": "O=C(NCC(CCN1CCCCC1)c1ccc(Cl)c(Cl)c1)c1cc(C(F)(F)F)cc(C(F)(F)F)c1 (stereo not drawn)",
    "pKi": "5.60 to 6.30"
  }
]
